Item-by-item account of Activity
biological target: Receptor-type tyrosine-protein kinase FLT3 (Homo sapiens); test: Inhibition of human recombinant […] N-terminal GST-tagged FLT3 (R571 to S993 residues) assessed as residual activity using poly (Ala, Glu, Lys, Tyr) hydrobromide as substrate in presence of ATP and Ci(gamma33-P) ATP at 1 uM measured by microplate reader assay
# number only, unit % dropped from output

Here is how some compounds turned out for Activity.
structure-smiles	subject-of-test	value-unit	observed
COc1ccc(Cn2cnc3c(Nc4ccc(C(=O)N5CCOCC5)cc4)nc(-c4cccc(NC(=O)c5ccc(C(C)(C)C)cc5)c4C)cc32)cc1	Receptor-type tyrosine-protein kinase FLT3 (Homo sapiens)	%	42.7
Cc1c(NC(=O)c2c[nH]cn2)cccc1-c1cc2[nH]cnc2c(Nc2ccc(C(=O)N3CCOCC3)cc2)n1	Receptor-type tyrosine-protein kinase FLT3 (Homo sapiens)	%	68.3
Cc1c(NC(=O)c2cccnc2)cccc1-c1cc2[nH]cnc2c(Nc2ccc(C(=O)N3CCOCC3)cc2)n1	Receptor-type tyrosine-protein kinase FLT3 (Homo sapiens)	%	76.2
C=CC(=O)N1CCC[C@H](n2nc(-c3ccc(Oc4ccccc4)cc3)c3c(N)ncnc32)C1	Receptor-type tyrosine-protein kinase FLT3 (Homo sapiens)	%	60.3
Cc1c(NC(=O)c2ncc[nH]2)cccc1-c1cc2[nH]cnc2c(Nc2ccc(C(=O)N3CCOCC3)cc2)n1	Receptor-type tyrosine-protein kinase FLT3 (Homo sapiens)	%	33.3

Req: Would you mind telling me what Activity value was observed for Cc1c(NC(=O)c2cccc(C(C)(C)C)c2)cccc1-c1cc2[nH]cnc2c(Nc2ccc(C(=O)N3CCOCC3)cc2)n1 ?
Resp: 64.9

Req: Would you mind telling me what Activity value was observed for CC(=O)Nc1cccc(-c2cc3[nH]cnc3c(Nc3ccc(C(=O)N4CCOCC4)cc3)n2)c1C ?
Resp: 95

Req: Would you mind telling me what Activity value was observed for Cc1c(NC(=O)c2ccc(C(C)(C)C)cc2)cccc1-c1cc2[nH]cnc2c(Nc2ccc(C(=O)N3CCOCC3)cc2)n1 ?
Resp: 51.9

Req: Would you mind telling me what Activity value was observed for Cc1c(NC(=O)C2CCCCC2)cccc1-c1cc2[nH]cnc2c(Nc2ccc(C(=O)N3CCOCC3)cc2)n1 ?
Resp: 75.7

Req: Would you mind telling me what Activity value was observed for Cc1c(NC(=O)c2nc3ccccc3[nH]2)cccc1-c1cc2[nH]cnc2c(Nc2ccc(C(=O)N3CCOCC3)cc2)n1 ?
Resp: 53.9

Req: Would you mind telling me what Activity value was observed for Cc1c(NC(=O)c2ccccc2)cccc1-c1cc2[nH]cnc2c(Nc2ccc(C(=O)N3CCOCC3)cc2)n1 ?
Resp: 47
